test system: 388556-164-R-J1-PDC complex spheroid viability; experiment: Anticancer human tumor 388556-164-R-J1-PDC patient-derived colon adenocarcinoma cell line growth inhibition [RAS]; settings: second compound 0.0949 µM; first compound 0.0316 µM; active compounds read low
REPORTED METRIC: viability, T/C (%)

{"columns": ["COMPOUND", "DISPLAY UNIT", "VAL"],
 "data": [
  ["CC(Nc1ccc2c(c1)OCCn1cc(N3C(=O)OCC3C(F)F)nc1-2)C(N)=O (stereo not drawn) + CCn1c(-c2cc(N3CCN(C)CC3)cnc2C(C)OC)c2c3cc(ccc31)-c1csc(n1)CC(NC(=O)C1CC1C)C(=O)N1CCCC(N1)C(=O)OCC(C)(C)C2", "%", 42.3],
  ["NC1c2ccccc2OC12CCN(c1cnc3c(N4CCCc5ncccc54)n[nH]c3n1)CC2 (stereo not drawn) + CCn1c(-c2cccnc2C(C)OC)c2c3cc(ccc31)N1CCOC(CC(NC(=O)C(C(C)C)N(C)C(=O)C3(F)CCN(C(=O)C#CC(C)(C)N(C)C)CC3)C(=O)N3CCCC(N3)C(=O)OCC(C)(C)C2)C1", "%", 66.8],
  ["CC(Nc1ccc2c(c1)OCCn1cc(N3C(=O)OCC3C(F)F)nc1-2)C(N)=O (stereo not drawn) + CCn1c(-c2cccnc2C(C)OC)c2c3cc(ccc31)N1CCOC(CC(NC(=O)C(C(C)C)N(C)C(=O)C3(F)CCN(C(=O)C#CC(C)(C)N(C)C)CC3)C(=O)N3CCCC(N3)C(=O)OCC(C)(C)C2)C1", "%", 95.8],
  ["CCN1CCN(Cc2ccc(Nc3ncc(F)c(-c4cc(F)c5nc(C)n(C(C)C)c5c4)n3)nc2)CC1 + CCn1c(-c2cc(N3CCN(C)CC3)cnc2C(C)OC)c2c3cc(ccc31)-c1csc(n1)CC(NC(=O)C1CC1C)C(=O)N1CCCC(N1)C(=O)OCC(C)(C)C2", "%", 35.4],
  ["Nc1ccn(C2OC(CO)C(O)C2(F)F)c(=O)n1 (stereo not drawn) + CCn1c(-c2cccnc2C(C)OC)c2c3cc(ccc31)N1CCOC(CC(NC(=O)C(C(C)C)N(C)C(=O)C3(F)CCN(C(=O)C#CC(C)(C)N(C)C)CC3)C(=O)N3CCCC(N3)C(=O)OCC(C)(C)C2)C1", "%", 74.7],
  ["NC1c2ccccc2OC12CCN(c1cnc3c(N4CCCc5ncccc54)n[nH]c3n1)CC2 (stereo not drawn) + CCn1c(-c2cc(N3CCN(C)CC3)cnc2C(C)OC)c2c3cc(ccc31)-c1csc(n1)CC(NC(=O)C1CC1C)C(=O)N1CCCC(N1)C(=O)OCC(C)(C)C2", "%", 32.3],
  ["CC1(O)CCCC1n1c(=O)c(C(F)F)cc2cnc(NC3CCN(S(C)(=O)=O)CC3)nc21 (stereo not drawn) + CCn1c(-c2cc(N3CCN(C)CC3)cnc2C(C)OC)c2c3cc(ccc31)-c1csc(n1)CC(NC(=O)C1CC1C)C(=O)N1CCCC(N1)C(=O)OCC(C)(C)C2", "%", 46.7],
  ["C=CC(=O)N1CCN(c2nc(OCC3CCCN3C)nc3c(F)c(-c4nc(N)cc(C)c4C(F)(F)F)c(Cl)cc23)C(C)C1 (stereo not drawn) + CCn1c(-c2cc(N3CCN(C)CC3)cnc2C(C)OC)c2c3cc(ccc31)-c1csc(n1)CC(NC(=O)C1CC1C)C(=O)N1CCCC(N1)C(=O)OCC(C)(C)C2", "%", 43.1]
]}

* * *

As shown below, each of these compounds has a reported viability, T/C value.
system: 388556-164-R-J1-PDC complex spheroid viability; assay: Anticancer human tumor 388556-164-R-J1-PDC cell line growth inhibition [RAS]; conditions: second compound 0.316 µM; first compound 0.03 µM; active compounds read low;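 note: spheroids exposed to compound for 7 days before readout; 100% = DMSO vehicle control luminescence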
REPORTED METRIC: viability, T/C (%)

{"columns": ["COMPOUND", "MEASURED TARGET", "VAL"],
 "data": [
  ["CCc1c2c(nc3ccc(O)cc13)-c1cc3c(c(=O)n1C2)COC(=O)[C@]3(O)CC + C=CC(=O)N1CCN(c2nc(OCC3CCCN3C)nc3c(F)c(-c4nc(N)cc(C)c4C(F)(F)F)c(Cl)cc23)C(C)C1", "388556-164-R-J1-PDC complex spheroid viability", 67],
  ["CCc1c2c(nc3ccc(O)cc13)-c1cc3c(c(=O)n1C2)COC(=O)[C@]3(O)CC + C#Cc1c(F)ccc2cc(O)cc(-c3ncc4c(N5CC6CCC(C5)N6)nc(OCC56CCCN5CC(F)C6)nc4c3F)c12", "388556-164-R-J1-PDC complex spheroid viability", 67.2],
  ["CC1(C)CCC(Nc2ncc(C(F)(F)F)c(-c3c[nH]c4c(P(C)(C)=O)c(C#N)ccc34)n2)CN1 (centres undefined) + C#Cc1c(F)ccc2cc(O)cc(-c3ncc4c(N5CC6CCC(C5)N6)nc(OCC56CCCN5CC(F)C6)nc4c3F)c12", "388556-164-R-J1-PDC complex spheroid viability", 114],
  ["CC1(C)CCC(Nc2ncc(C(F)(F)F)c(-c3c[nH]c4c(P(C)(C)=O)c(C#N)ccc34)n2)CN1 (centres undefined) + C=CC(=O)N1CCN(c2nc(OCC3CCCN3C)nc3c(F)c(-c4nc(N)cc(C)c4C(F)(F)F)c(Cl)cc23)C(C)C1", "388556-164-R-J1-PDC complex spheroid viability", 95.7]
]}

* * *

test system: 388556-164-R-J1-PDC complex spheroid viability; test: Anticancer human tumor 388556-164-R-J1-PDC cell line growth inhibition [RAS]; conditions: second compound 10 µM; first compound 0.1 µM; active compounds read low;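 note: spheroids exposed to compound for 7 days before readout; 100% = DMSO vehicle control luminescence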
Each record is given condition met if its reported viability, T/C is strictly below 50%. Records at or above 50% are given condition not met.

{"columns": ["COMPOUND", "MEASURED TARGET", "CLASS NAME"],
 "data": [
  ["Cc1nc(N2CCC3(CC2)COC(C)C3N)c(CO)nc1Sc1ccnc(N)c1Cl (stereo not given) + C#Cc1c(F)ccc2cc(O)cc(-c3ncc4c(N5CC6CCC(C5)N6)nc(OCC56CCCN5CC(F)C6)nc4c3F)c12", "388556-164-R-J1-PDC complex spheroid viability", "condition met"],
  ["CC1(O)CCCC1n1c(=O)c(C(F)F)cc2cnc(NC3CCN(S(C)(=O)=O)CC3)nc21 (stereo not given) + C#Cc1c(F)ccc2cc(O)cc(-c3ncc4c(N5CC6CCC(C5)N6)nc(OCC56CCCN5CC(F)C6)nc4c3F)c12", "388556-164-R-J1-PDC complex spheroid viability", "condition not met"],
  ["O=C(c1ccc(F)c(F)c1Nc1ccc(I)cc1F)N1CC(O)([C@@H]2CCCCN2)C1 + C#Cc1c(F)ccc2cc(O)cc(-c3ncc4c(N5CC6CCC(C5)N6)nc(OCC56CCCN5CC(F)C6)nc4c3F)c12", "388556-164-R-J1-PDC complex spheroid viability", "condition met"],
  ["CC(C)NCC(C(=O)N1CCN(c2ncnc3c2C(C)CC3O)CC1)c1ccc(Cl)cc1 (stereo not given) + C#Cc1c(F)ccc2cc(O)cc(-c3ncc4c(N5CC6CCC(C5)N6)nc(OCC56CCCN5CC(F)C6)nc4c3F)c12", "388556-164-R-J1-PDC complex spheroid viability", "condition not met"],
  ["Nc1ccn(C2OC(CO)C(O)C2(F)F)c(=O)n1 (stereo not given) + C#Cc1c(F)ccc2cc(O)cc(-c3ncc4c(N5CC6CCC(C5)N6)nc(OCC56CCCN5CC(F)C6)nc4c3F)c12", "388556-164-R-J1-PDC complex spheroid viability", "condition not met"]
]}

* * *

tested on: 388556-164-R-J1-PDC complex spheroid viability; assay: Anticancer human tumor 388556-164-R-J1-PDC cell line growth inhibition [RAS]; conditions: second compound 1 µM; first compound 0.0316 µM; active compounds read low;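 note: spheroids exposed to compound for 7 days before readout; 100% = DMSO vehicle control luminescence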
# maps each entry to its viability, T/C
REPORTED METRIC: viability, T/C

{"columns": ["COMPOUND", "REPORTED METRIC", "VAL"],
 "data": [
  ["O=C(c1ccc(F)c(F)c1Nc1ccc(I)cc1F)N1CC(O)([C@@H]2CCCCN2)C1 + C=CC(=O)N1CCN(c2nc(OCC3CCCN3C)nc3c(F)c(-c4nc(N)cc(C)c4C(F)(F)F)c(Cl)cc23)C(C)C1", "viability, T/C", "86.1%"],
  ["CC(C)n1nc(-c2ccc3oc(N)nc3c2)c2c(N)ncnc21 + C#Cc1c(F)ccc2cc(O)cc(-c3ncc4c(N5CC6CCC(C5)N6)nc(OCC56CCCN5CC(F)C6)nc4c3F)c12", "viability, T/C", "55.6%"],
  ["Cc1nc(N2CCC3(CC2)COC(C)C3N)c(CO)nc1Sc1ccnc(N)c1Cl (stereo not drawn) + C#Cc1c(F)ccc2cc(O)cc(-c3ncc4c(N5CC6CCC(C5)N6)nc(OCC56CCCN5CC(F)C6)nc4c3F)c12", "viability, T/C", "80%"]
]}
